Tested on: FXR:RXRa (NR concentration 270 nM, RXRa partner concentration 90 nM)
Test: PBM binding z-score (relative to random genomic background probes); higher = stronger binding; sequences stand for … in GC…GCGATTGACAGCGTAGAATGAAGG
Class boundaries, taken from values of PBM binding z-score, are as follows: lower level: < 0.9; middle level: ≥ 0.9 and < 3; upper level: ≥ 3

Study these solved cases before continuing.
sequence_content=TCTTGTACATCAAAGGTTAAGAAAGCCGAAGCCT assigned_class="middle level"
sequence_content=TCTAGTTGGTCACGGAGTTCACACACGACGGGTA assigned_class="middle level"
sequence_content=TCGAGTAGGTTACCTATGGGGCATTCAGCTTTCT assigned_class="lower level"
sequence_content=GCTATTAGTTGAAAGGGCCACCGAATGATTCTCG assigned_class="lower level"
sequence_content=CGAACTAGGTCAAGGACAGTTAATCTCCGCACGC assigned_class="upper level"

Kindly consider the entry below.
Exam item: Form field 'band' for ACTAGCAGGCCAAGTTTTGGTCACTCAAACAAAG
Marked response: lower level
